- Test system: 935938-334-R-J1-PDC complex spheroid viability;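 further: spheroids exposed to drugs for seven days before viability read; 100% = DMSO vehicle control wells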
- Protocol notes: Anticancer human tumor 935938-334-R-J1-PDC patient-derived small intestine adenocarcinoma cell line growth inhibition [POLQ]
- Condition info: second compound 0.1 µM; first compound 10 µM; stronger effect = lower value
Reported endpoint: viability, T/C (%)

Molecule: COc1ccc([C@@H](O)c2cc(-c3ncnc4cc(N5CCOCC5)ccc34)c(F)cc2Cl)nn1 + COC1C(OC(N)=O)C(O)C(Oc2ccc3c(O)c(NC(=O)c4ccc(O)c(CC=C(C)C)c4)c(=O)oc3c2C)OC1(C)C
Subject of test: 935938-334-R-J1-PDC complex spheroid viability
Reported endpoint: viability, T/C
Numeric result: 26.6

Molecule: COc1ccc([C@@H](O)c2cc(-c3ncnc4cc(N5CCOCC5)ccc34)c(F)cc2Cl)nn1 + Nc1ccc(C#CCN(C(=O)Cc2ncc(C(F)(F)F)cc2C(F)(F)F)c2ccc(F)cc2)nn1
Subject of test: 935938-334-R-J1-PDC complex spheroid viability
Reported endpoint: viability, T/C
Numeric result: 29.4

Molecule: O=C(c1cc(Cc2n[nH]c(=O)c3ccccc23)ccc1F)N1CCN(C(=O)C2CC2)CC1 + Cc1cccc(N(C)C(=O)C2C(O)CCN2c2nc(C)cc(C(F)(F)F)c2C#N)c1
Subject of test: 935938-334-R-J1-PDC complex spheroid viability
Reported endpoint: viability, T/C
Numeric result: 63.7
